assay: amyloid nucleation score (Sup35N fusion, yeast selection) (log enrichment); library NNK2; higher = more nucleation; inactive = no reads after selection;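 also: zero at mode of non-aggregating sequences after 7 days selection at 30°C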
Item-by-item account of amyloid nucleation score

biosequence | amyloid nucleation score
NGDLCILLTWATWGSTE | 0.686
FHRCSYLVT | 2.95
VTFCMQVRAG | 0.524
GCHSWSNLGEWCCYIYKMVI | -1.14
YSHSLHVIQKSFFCITVFVM | 5.28

---

# reported amyloid nucleation score; entries follow
test: amyloid nucleation score (Sup35N fusion, yeast selection) (log enrichment); library NNK2; higher = more nucleation; inactive = no reads after selection

biosequence | amyloid nucleation score
RADSIFDTI | -0.721
DVPLCLYCMYLSSFRVVIWM | 2.35
DIARDLVWGLRSNAGAQLGN | 0.54
VPDGHWSTHRRFSYMQVLNW | -0.441
QFARGPSGSIMEQVLIDGDV | 0.277
FIRHSTSALGP | 0.889
DCLFLKVSPLVHQYYWIGFD | 0.306
GVYNITTLLPRCVVNVVL | 7.48
NIFMWSSTEIHCRWKVFLRL | -0.949
TTICVFNVGESHMRLSGSVG | -0.053
FAHAIVSHDWDQRVRGWSGC | 0.836
TDYGLVALSQWKRVCLIQSG | 0.176
SCLTDQDERPGLWELSCRYM | 1.1
TVCWEWSSLWDTPSLKSAD | 0.536
VTGDMTLFAWNLMGA | 0.625
SLNRTTSSLVRW | 6.03
RPNLLSDILPRGLMAKSMHF | 0.107
YYDLRAATESDVRHGTADHR | 0.195
TNCHLFVSFFLCVDVYTVVC | 4.72
SIFYLEGDHDLTTCTDLNTF | 3.13
MRRSLFMCILVYDSWLYFSV | 3.15
DWCWAMDLYSFVFHCRLEAF | -0.658
SNIYRCPVMSIRSVSHS | 0.536

---

test: amyloid nucleation score (Sup35N fusion, yeast selection) (log enrichment); library NNK1; higher = more nucleation; inactive = no reads after selection
measurementLabel: amyloid nucleation score

biosequence | recordedResult
HFYFIYCSQIQVFKQV | 7.42
TIRARMVCLNCQMVR | 3.54
FSTLICIGVE | -0.35
GDDVRRPVVSVHNSRGYSFG | -0.235
HRWSDVFPWRTVKMYQLSRC | 0.552
FGCSSLCTLSTVEE | -1.21
RRGRLYSKLCLCRF | 0.874
QLSTISFLQWSGSACSSTVH | -0.49
SSPDFMFYILNRALA | -0.526
TISSLLFI | -0.252
TASIDEQHHWTRQY | 0.32
QRLLTYPLLYVTSNVLRFYR | -0.001
GDGVGFVLITHWDVVDDMGC | 0.724
KTRLSWYWKITCLLHSMKFS | -0.12
MWLKSNNWRNKADDLQGKVD | 0.523
KFSGWHLHGDLCRIHALEVW | 0.457
NVNCNRYSWMGDHSCEGRQP | -0.128
GDSVESQILLVVGCIY | -0.416
STVTTAYNDMSLIWQAARVL | 0.436
FRRIFSWACPV | 0.352
SDEGLYPYLHLTFKTSTLWK | 0.201
FSRNAAYMIICSTGRRKFWH | 3.75
EMAFISYH | 0.4
FTCLVNSNSPL | 0.606
MYETWFTFRWKLTDI | -0.007
LCSIKNSLMECLWYDL | -0.177
VSTIFHIGFVLKFRDYRESE | 2.93
LILSSCHERGSGGVFWTDHV | 0.924
LSDFLRPLVLVFLSTLEVAM | 0.138
RGNLGLDLWICSGYRMVMFQ | -0.784
SRGFDHITFF | -0.677
FAVSIVSFLRASVVDWVWYT | -0.209
MRFYAMGRDVYICCDGNKIL | 5.07
FMCVGSYDPYPWP | 0.659
ETSSPLLEGG | 0.554
VDRVGIQYVLEWCSRRSGQV | 0.04
WITTMHNLHELNHRGPPPKL | -0.972
GDIRGQMCMWYLW | -1.73
KYVIMLNLKSEL | 3.4
RRYRVLANISS | 0.66
LLFRNYHMGDLEHLFIFYWY | 0.475
TMYWITQKVEKSSHMVCRVT | 2.61
WSVLCSFRSSSNQAFVFRVQ | -0.827
MITWMYASWYNRPVLVYQFW | 0.233
GQQLCVIFYSTCDSYKMLSD | 3.26
AIAGSAMVEGAH | 0.985
FADIKYLSTFG | -0.045
LSIIVHNCGVLVVSMTLTVI | -0.172
CVELVLSCV | -0.095
CGFDRMAMYWVNFDLHWSSA | 0.121
RLDCIHNFALNSYFRIGAWG | -0.215
GCDYARPINWCDTPYGSFNL | -2.49
GVMRKNMNKAWFTRDIDSF | 0.752
YTSKSMRGFSKKSLFDMTFK | 0.126

---

experiment: amyloid nucleation score (Sup35N fusion, yeast selection) (log enrichment); library NNK2; higher = more nucleation; inactive = no reads after selection

substance | amyloid nucleation score
ICPFKSWFFYSLPYAFVRFT | inactive
TLSKVFRVRPGSMTTHCYIV | inactive
WCRWMGMH | 0.543
CLWSTN | 0.801
VDVLLFRDYLNYSNLITHKV | -1.21
TYFVLYVCED | 0.311
TVFFIFHLLVYLPMFTRALD | 8.55
RFDWRFCVVNRPGGKWLVVR | 0.824
YMSNPSELWKNWILVHYHFC | 3.56
IDVSKCVLGKDSSLRGTNTR | -0.595
SVIDFLLAYRKDLWCWDLT | 0.19
TGHFKKYVKGEGADDSNCAL | 0.347
THKNLEC | 0.681
DLARPDFKLIYSYGSNSPGS | -1.38
TARDVFIAVFA | 0.089
LNHKDICFARNLVRVREGHN | 0.809
CYSTLGLSG | 0.516
HTGLFWS | inactive
LITQKHFTRVTNMPIRLCSL | -0.491
FQVSCVHQVPRAAGVADGAV | 0.375
DRLLRSRLGIRSNRIVCW | -0.539
AAWNRPHMERRFSYEGYYIV | -0.508
LSDFEIFTLTIHSHLYHN | 1.66
RYWTSIGCGR | 0.589
NRKTSGLYVFRWRKRPR | 0.264
FPNLFYFADYVLICNLMIKL | 4.58
RASARLVCTFYVLTERG | 4.17
VGAMSIMKVLNFHDDILTVT | inactive
YCIKLRRYQNDKFWFNYTQV | 4.35
ETLAVLRIPCSRLYDHIYNF | -0.791
ESYIWMLRGHMLCKDEVMNV | -0.611
LATWLP | 0.871
LVKCRGATCLIVTSDRLLYV | inactive
DGMSRSVRKNCEAGCRRSFG | 4.58
RAMYECF | 0.604
MKVPVRIRWVPLFSDFTYQV | -0.736
EESSTKGMTG | -0.014
PSNKLKWLCLDV | 0.576
WLPKVWLRVRWFNEEKRDGG | -0.123
CQWSVGRLRSLRAESVVQFD | 0.104
CVGIFDNDICVEFMMALRLD | -1.05
GWTKLFGVHDSGIGCPNGVL | inactive
SVNYVCISLVVM | 7.14
RYVVCNGRNLELLDFMNSRS | -0.74
AFAVSSLESGWRRRTSLEWL | 0.106
SMVFFGPFIFYVANPITSFV | 5.54
SSIRLFCFTMAHVHMTDSHD | 4.53
NIRKMSGFVNSYTAYSQGEL | inactive
RVDGDYSSARRGGLISKWAF | 0.804
FGFCGFMVHVGLVRDFLFC | 0.257
RSIRCVYKF | -0.465
FLLPGCSLIFFYCSGCSMV | 5.01
RLLMGPVNSFGR | 3.57
LQVVVMFCPSL | 8.29
VTRPMDDTRVRVSNCVDWII | 0.511
KILNPERRSNGWVMMKFVVD | -0.599

---

assay: amyloid nucleation score (Sup35N fusion, yeast selection) (log enrichment); library NNK3; higher = more nucleation; inactive = no reads after selection
measurementLabel: amyloid nucleation score

substance | recordedResult
SVSSRHSAW | inactive
LFITSHREGDWWLSTVRIHF | 0.367
PRSMNLHLTSSVTSCLKSVW | -0.707
NMRTCSIGSKPIVKFTYMCG | 1.31
DSFNLSDSGWSTLYIRAWDG | inactive
LSNDYCLRWVFMFKVMIRCD | inactive
LQYYLRPRFNLRLYGAIPPA | inactive
KQKMYTAVPKGIQNILEA | inactive
SDKRPWGFRNRDIYVIVGHR | inactive
GMVWFRFLKYAKC | -1.54
GSDEEESLNCSYASSLTSVC | inactive
PMYVHRKDYKVVGSYMSTM | inactive
CEGMKCYVVLTRLRLKKTRT | inactive
AGVDWQILV | inactive
HLYYAP | inactive
RSIDGKSYNLAYLLGGLRNS | 2.56
FVWNMFSASLIKI | inactive
KIQSMISTITMVFTKLLSHL | -0.546
IMICILHLC | inactive
IEAMRNRWSFKY | inactive
SLRYGREIKNMRQNCIDPWC | inactive
LCMAFNVIPQTSFLALKASC | inactive
RKSDFVIVSCYQRFGNRELN | inactive
WDYKAGISSSLSAIGCLYGD | inactive
SVRLTIEMVTAVFRWGESMR | 0.233
GSKLICIVWLFLLFG | inactive
